# target.or.test.system: recombinant soluble homotrimeric HA, A/South Carolina/1/18 H1N1 (Influenza A virus A/South Carolina/1/18 (H1N1))
# assay.procedure: microarray, transfection SN IgG, trimeric HA
# condition.info: remark: other sources report otherwise
Quick list: Trimeric HA Binding: RLU per entry.
Supply the numeric figure in RLU, leaving out any unit text.

Request: Which Trimeric HA Binding: RLU value is on record for TCN-557 (5081_A04) (antibody, V domains shown) VH: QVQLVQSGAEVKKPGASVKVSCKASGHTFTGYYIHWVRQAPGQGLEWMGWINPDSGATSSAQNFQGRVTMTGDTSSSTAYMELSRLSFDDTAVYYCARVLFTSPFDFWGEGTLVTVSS VL: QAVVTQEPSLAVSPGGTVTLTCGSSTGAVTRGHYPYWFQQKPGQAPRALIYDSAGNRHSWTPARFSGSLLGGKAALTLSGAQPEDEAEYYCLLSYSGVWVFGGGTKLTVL ?
Result: 44900

Request: Using the record for TCN-523 (5248_A17) (antibody, V domains shown) VH: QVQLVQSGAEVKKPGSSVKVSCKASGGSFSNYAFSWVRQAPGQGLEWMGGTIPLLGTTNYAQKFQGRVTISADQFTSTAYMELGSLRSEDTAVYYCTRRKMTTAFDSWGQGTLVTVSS VL: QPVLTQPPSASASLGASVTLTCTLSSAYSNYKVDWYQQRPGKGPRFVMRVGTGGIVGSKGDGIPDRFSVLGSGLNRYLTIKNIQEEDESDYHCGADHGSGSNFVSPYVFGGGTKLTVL , report its Trimeric HA Binding: RLU.
Result: 52000
